Test system: Plasmodium berghei
Test: Screen against P. berghei liver stage (PbLuc), transformed with Luciferase, at 2uM
Assay type: functional, HepG2
Details: tested at 2 uM
Screen size: about 68,000 compounds; about 2,700 (4%) showed an effect of 50% or more. The entries come from a sample that favours strong results as a whole.
VALUE KIND: INHIBITION (%)
All answers are understood in %, so give the number only.

GET /values?readout=INHIBITION&system=Plasmodium berghei&item= `CN(C)CCN1CC2(CCN(C(=O)c3cnccn3)CC2)OC1=O`
-48.69

Please do the same for N#Cc1cccc(C(=O)N2CCCC(O)(CO)CC2)c1 (stereo unspecified) as well.
16.82

Please do the same for `O=C(COc1cccc2c1CCC2=O)NCCc1cccs1` as well.
-27.22

Please do the same for O=C(c1cccc(Oc2ccccc2)c1)N1CCCC(O)(CO)CC1 (stereo unspecified) as well.
53.66

Please do the same for CNc1ccc(C)cc1C(=O)N1CCCC2(CCNC2)C1 (stereo unspecified) as well.
8.3

Please do the same for O=C(c1ccnc(-n2cnnc2)c1)N1CCCC2(CCNC2)C1 (stereo unspecified) as well.
7.67

Please do the same for O=C(c1ccc(-n2cnnc2)cc1Cl)N1CCCC2(CCNC2)C1 (stereo unspecified) as well.
57.75

Please do the same for `CCCc1cc(C(=O)N2CCC3(CC2)CN(CCN(C)C)C(=O)O3)no1` as well.
28.73

Please do the same for `Cc1ccc(C(=O)N2CCC3(CC2)CN(CCN(C)C)C(=O)O3)c(F)c1` as well.
57.34

Please do the same for CN(C)CCCN1CC2(CCN(C(=O)C3(C)CCCCO3)CC2)OC1=O (stereo unspecified) as well.
-64.97

Please do the same for CN(C)CC1(O)CCN(C(=O)c2ccc(-n3cnnc3)cc2Cl)C1 (stereo unspecified) as well.
21

----------
Tested on: Plasmodium berghei
Test: Screen against P. berghei liver stage (PbLuc), transformed with Luciferase, at 2uM
Type: functional, HepG2
Conditions: tested at 2 uM
Screen size: about 68,000 compounds; about 2,700 (4%) showed an effect of 50% or more. The list comes from a sample in which strong results are over-represented; it also holds close analogues and randomly drawn compounds.
VALUE KIND: INHIBITION (%)
All answers are understood in %, so give the number only.

Query (molecule): COc1ccc(C(=O)N2CCCC2c2cnn(C)c2)cn1 (stereo unspecified) ; field requested: INHIBITION
80.46

Please do the same for O=C(Cc1n[nH]c2ccccc12)N1CCCC1Cn1cccn1 (stereo unspecified) as well.
-36.73

Please do the same for CC(C)Oc1ccc(C(=O)N2CCCC2c2cnn(C)c2)cn1 (stereo unspecified) as well.
15.13

Please do the same for Cn1cc(C2CCCN2C(=O)COCCOc2ccccc2)cn1 (stereo unspecified) as well.
-24.75

Please do the same for `O=C(N1CCCC1)N1CCC2(CC1)C(=O)N(CC1CC1)c1ccccc12` as well.
31.5

Please do the same for `CC(=O)N1CCC2(CC1)C(=O)N(CC1CC1)c1ccccc12` as well.
24.15

Please do the same for CCCc1noc(CCCC(=O)N2CCCC2c2cnn(C)c2)n1 (stereo unspecified) as well.
54.99

Please do the same for CCCc1noc(CCC(=O)N2CCCC2c2ccncc2)n1 (stereo unspecified) as well.
-33.92

Please do the same for Cc1cnn(CC2CCCN2C(=O)Cc2n[nH]c3ccccc23)c1 (stereo unspecified) as well.
3.9

Please do the same for CCCc1noc(CCC(=O)N2CCCC2c2ccc(OC)cc2)n1 (stereo unspecified) as well.
30.29

Please do the same for `O=C([C@H]1CCCO1)N1CCC2(CC1)C(=O)N(CC1CC1)c1ccccc12` as well.
58.95
